# assayedTarget: T1, recombinant human VEGF165 (human, UniProt P15692-4 27-191, biotinylated in the competition assays)
# T1 construct: Bought protein; also called hVEGF165; rhVEGF165
# T1 sequence (P15692 other isoform, or with tags, fused parts or gaps): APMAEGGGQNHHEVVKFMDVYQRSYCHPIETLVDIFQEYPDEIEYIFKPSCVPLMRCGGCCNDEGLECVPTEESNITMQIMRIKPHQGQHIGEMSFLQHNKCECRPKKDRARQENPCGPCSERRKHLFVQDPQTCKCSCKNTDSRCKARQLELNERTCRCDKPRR
# assayExplanation: ELISA, hVEGF165/hVEGFR2-Fc competition
The following binders are shown together with reported IC50 values.
Note to self: number, then unit, no commentary.

These solved cases illustrate the format of a correct answer.
binder: VEGFBII010 (VHH, not shown: small tags and cut ends, Homodimeric bivalent anti-VEGF VHH; also called VEGFBII23B04-35GS-23B04) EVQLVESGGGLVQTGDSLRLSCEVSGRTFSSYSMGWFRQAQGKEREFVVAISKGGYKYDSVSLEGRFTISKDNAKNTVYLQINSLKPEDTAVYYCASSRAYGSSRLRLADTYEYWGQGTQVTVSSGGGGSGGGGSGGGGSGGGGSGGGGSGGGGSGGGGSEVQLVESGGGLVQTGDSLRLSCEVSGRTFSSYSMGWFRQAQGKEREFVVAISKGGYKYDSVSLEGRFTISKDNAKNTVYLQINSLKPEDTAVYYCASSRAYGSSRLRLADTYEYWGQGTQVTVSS
result: 0.049 nM
--
binder: VEGFBII022 (VHH, not shown: small tags and cut ends, Bivalent (heterodimeric) anti-VEGF VHH; also called VEGFBII23B04-9GS-5B05) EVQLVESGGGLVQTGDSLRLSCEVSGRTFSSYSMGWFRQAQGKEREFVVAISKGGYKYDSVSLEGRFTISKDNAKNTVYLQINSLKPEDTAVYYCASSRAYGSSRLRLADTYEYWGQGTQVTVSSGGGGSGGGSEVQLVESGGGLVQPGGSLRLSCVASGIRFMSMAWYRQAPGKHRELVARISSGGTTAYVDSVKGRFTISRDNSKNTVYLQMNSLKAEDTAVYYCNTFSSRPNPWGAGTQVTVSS
result: 0.164 nM
--
binder: VEGFBII023 (VHH, not shown: small tags and cut ends, Bivalent anti-VEGF VHH; also called VEGFBII23B04-40GS-10E07) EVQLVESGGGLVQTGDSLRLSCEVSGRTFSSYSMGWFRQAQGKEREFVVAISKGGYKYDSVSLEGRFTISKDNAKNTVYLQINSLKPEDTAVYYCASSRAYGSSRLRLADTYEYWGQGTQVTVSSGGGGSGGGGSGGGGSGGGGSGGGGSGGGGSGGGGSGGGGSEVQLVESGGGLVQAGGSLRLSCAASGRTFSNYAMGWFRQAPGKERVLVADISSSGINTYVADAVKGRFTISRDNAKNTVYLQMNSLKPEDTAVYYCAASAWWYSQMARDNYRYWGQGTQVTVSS
result: 0.213 nM

Requested field: IC50. Item: VEGFBII025 (VHH, not shown: small tags and cut ends, Bivalent anti-VEGF VHH; also called VEGFBII10E07-40GS-23B04) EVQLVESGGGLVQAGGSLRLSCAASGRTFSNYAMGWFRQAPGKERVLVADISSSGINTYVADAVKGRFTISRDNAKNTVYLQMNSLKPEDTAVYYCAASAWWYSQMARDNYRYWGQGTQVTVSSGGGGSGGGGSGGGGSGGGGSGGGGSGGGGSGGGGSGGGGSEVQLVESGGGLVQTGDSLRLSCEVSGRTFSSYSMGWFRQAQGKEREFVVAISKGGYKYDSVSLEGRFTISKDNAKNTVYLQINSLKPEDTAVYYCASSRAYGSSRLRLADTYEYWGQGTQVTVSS
0.577 nM

Record: VEGFBII021 (VHH, not shown: small tags and cut ends, Bivalent (heterodimeric) anti-VEGF VHH; also called VEGFBII23B04-40GS-5B05) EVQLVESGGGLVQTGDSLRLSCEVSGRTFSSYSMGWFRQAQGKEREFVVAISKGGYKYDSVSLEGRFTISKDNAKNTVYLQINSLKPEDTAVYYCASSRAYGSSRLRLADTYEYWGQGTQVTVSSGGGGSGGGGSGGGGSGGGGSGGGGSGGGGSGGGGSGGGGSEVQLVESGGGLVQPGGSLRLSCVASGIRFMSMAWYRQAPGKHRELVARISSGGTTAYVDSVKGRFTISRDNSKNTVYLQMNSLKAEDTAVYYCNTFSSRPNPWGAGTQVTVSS
0.204 nM
